Tested on: Rhizoctonia solani
Experiment: Antifungal activity against Rhizoctonia solani at 50 ug/ml
Format: functional
Exercise: state measured inhibition at 50 µg/mL for each of the compounds provided.
Please respond with the number in % and leave the unit unwritten.

(Q) Name the reported inhibition at 50 µg/mL value associated with the compound `COc1ccccc1C[C@@]1(CNC(=O)c2ccccn2)CCC[C@]2(C)c3ccc(C(C)C)cc3CC[C@@H]12`
(A) 46.2

(Q) Name the reported inhibition at 50 µg/mL value associated with the compound `CC(C)c1ccc2c(c1)CC[C@H]1[C@@](CNC(=O)c3ccccn3)(Cc3ccc(Br)cc3)CCC[C@]21C`
(A) 25.2

(Q) Name the reported inhibition at 50 µg/mL value associated with the compound `CC(C)c1ccc2c(c1)CC[C@H]1[C@@](CN)(Cc3ccc(C(C)(C)C)cc3)CCC[C@]21C`
(A) 65

(Q) Name the reported inhibition at 50 µg/mL value associated with the compound `CC(C)c1ccc2c(c1)CC[C@H]1[C@@](CN)(Cc3ccc(C(F)(F)F)cc3)CCC[C@]21C`
(A) 38.6

(Q) Name the reported inhibition at 50 µg/mL value associated with the compound `O=C(Nc1ccccc1-c1ccc(Cl)cc1)c1cccnc1Cl`
(A) 80.2

(Q) Name the reported inhibition at 50 µg/mL value associated with the compound `CC(C)c1ccc2c(c1)CC[C@H]1[C@@](CNC(=O)c3ccccn3)(Cc3ccc(C(F)(F)F)cc3)CCC[C@]21C`
(A) 16.3

(Q) Name the reported inhibition at 50 µg/mL value associated with the compound `CC(C)c1ccc2c(c1)CC[C@H]1[C@@](CNC(=O)c3ccccn3)(Cc3ccccc3)CCC[C@]21C`
(A) 1.9

(Q) Name the reported inhibition at 50 µg/mL value associated with the compound `CC(C)c1ccc2c(c1)CC[C@H]1[C@@](CNC(=O)c3ccccn3)(Cc3cccc(C#N)c3)CCC[C@]21C`
(A) 5.8

(Q) Name the reported inhibition at 50 µg/mL value associated with the compound `COc1cccc(C[C@@]2(CNC(=O)c3ccccn3)CCC[C@]3(C)c4ccc(C(C)C)cc4CC[C@@H]23)c1`
(A) 5.2

(Q) Name the reported inhibition at 50 µg/mL value associated with the compound `CC(C)c1ccc2c(c1)CC[C@H]1[C@@](CNC(=O)c3ccccn3)(Cc3ccccc3C#N)CCC[C@]21C`
(A) 29.3

(Q) Name the reported inhibition at 50 µg/mL value associated with the compound `CC(C)c1ccc2c(c1)CC[C@H]1[C@@](CNC(=O)c3ccccn3)(Cc3ccc(C(C)(C)C)cc3)CCC[C@]21C`
(A) 65.4

(Q) Name the reported inhibition at 50 µg/mL value associated with the compound `CC(C)c1ccc2c(c1)CC[C@H]1[C@@](CNC(=O)c3ccccn3)(Cc3ccc(OC(F)(F)F)cc3)CCC[C@]21C`
(A) 26.1

(Q) Name the reported inhibition at 50 µg/mL value associated with the compound `COc1ccccc1C[C@@]1(CN)CCC[C@]2(C)c3ccc(C(C)C)cc3CC[C@@H]12`
(A) 44.5
